- System: MAPK14
- Parameters: species or system human, MV4-11 + K-562 + COLO205 + SK-N-BE2 + OVCAR-8
- statedConditions: read-out: apparent Kd; compound concentrations:100 nM and 1000 nM (sheet 'Samples'); n = 1
Output: class label from potency estimated from few doses. Mapping: low: < 8 nM; medium: ≥ 8 nM and < 600 nM; high: ≥ 600 nM

Before answering, review these 5 worked examples.
| compound | groupLabel |
| --- | --- |
| Cl.Cn1c(=O)c(Oc2ccc(F)cc2F)cc2cnc(N[C@H]3CC[C@H](O)CC3)nc21 | low |
| CCn1c(=O)c(Oc2ccc(F)cc2F)cc2cnc(NC3CCOCC3)nc21 | low |
| CS(=O)(=O)CCCn1c(=O)c(Oc2ccc(F)cc2F)cc2cnc(NC3CCOCC3)nc21 | low |
| CCN1CCN(Cc2ccc(C(=O)Nc3ccc(C)c(Oc4ccc5c(c4)CC(=O)N5)c3)cc2C(F)(F)F)CC1.Cl.Cl | high |
| O=c1cc(N2CCOCC2)nc2n(Cc3cccc(F)c3)ccn12 [GSK2297430A] | high |

[Q] Band for `Fc1ccc(-c2ncn(C3CCNCC3)c2-c2ccnc(Oc3ccc(Oc4ccccc4)cc3)n2)cc1` ?
[A] medium

[Q] Please indicate the class for `Cn1c(=O)c(-c2ccccc2Cl)cc2cnc(NC3CCOCC3)nc21` based on its potency estimated from few doses.
[A] medium

[Q] Which class does `Fc1ccc(-c2ncn(C3CCNCC3)c2-c2ccnc(Oc3ccccc3)n2)cc1` fall in?
[A] medium

[Q] Class (by measured potency estimated from few doses) for `Cl.NCc1ccc(-c2nc(-c3ccc(Cl)c(O)c3)c(-c3ccncc3)[nH]2)cc1`
[A] medium

From: paper PMC11062922
